Source listed as ChEMBL document CHEMBL5104101.

Molecular target: RAF proto-oncogene serine/threonine-protein kinase (Homo sapiens)
Assay: Inhibition of CRAF (unknown origin) by Nano-syn mobility shift assay
The source made the active and inactive calls. The calls are words filed in the database; no cut-off is given here.
readout label: inhibition

CC(C)(C)c1cc(NC(=O)Nc2ccc(Oc3ccc4cccnc4c3)cc2)n(-c2ccc3ncccc3c2)n1 Active
CN1CCN(Cc2ccc(NC(=O)Nc3ccc(Oc4ccc5cccnc5c4)cc3)cc2C(F)(F)F)CC1 Active
CN1CCN(Cc2ccc(NC(=O)Nc3ccc(Oc4ccc5ncccc5c4)cc3)cc2C(F)(F)F)CC1 Active
CC(C)(C)c1cc(NC(=O)Nc2ccc(Oc3ccc4ncccc4c3)cc2)n(-c2ccc3ncccc3c2)n1 Active

###

Test system: BaF3
Test: Cytotoxicity against mouse BaF3 cells stably expressing ABL-T315I mutant assessed as cell growth inhibition incubated for 72 hrs by celltiter-glo luminescent cell viability assay
Assay type: functional
Exercise: for every item that follows, state its recorded GI50.

Example cases with answers are listed next.
CC(C)(C)c1cc(NC(=O)Nc2ccc(Oc3ccc4ncncc4c3)cc2)n(-c2ccc3ncccc3c2)n1 269 nM
CC(C)(C)c1cc(NC(=O)Nc2ccc(Oc3ccc4cccnc4c3)cc2)n(-c2ccc3ncccc3c2)n1 > 10000 nM
CN1CCN(Cc2ccc(NC(=O)Nc3ccc(Oc4ccc5ncncc5c4)cc3)cc2C(F)(F)F)CC1 117 nM
CC(C)(C)c1cc(NC(=O)Nc2ccc(Oc3ccc4ncccc4c3)cc2)n(-c2ccc3ncccc3c2)n1 801 nM
CN1CCN(Cc2ccc(NC(=O)Nc3ccc(Oc4ccc5ncccc5c4)cc3)cc2C(F)(F)F)CC1 162 nM

Now for another entry.
GI50 reading for `CN1CCN(Cc2ccc(NC(=O)Nc3ccc(Oc4ccc5cccnc5c4)cc3)cc2C(F)(F)F)CC1` : > 10000 nM
